Molecular target: HLA-DRB1*04:01 MHCII molecule (human)
Assay: saturation binding ELISA; pH 5
Where no end group is shown, it is not given here.
measure.name: Kd (µM)

>>> value_measured("PVSKMRMATPLLMQA (also: biotinylated, position not given here) [biotinylated high affinity huCLIP]")
0.2
